- ASSAY SYSTEM: pig TRPM8 (Sus scrofa)
- Construct: expressed in transfected cells; host or cells: CHO (pcDNA5/FRT/TO vector; hygromycin B and blasticidin selection)
- Sequence (F1SM15 1-1104): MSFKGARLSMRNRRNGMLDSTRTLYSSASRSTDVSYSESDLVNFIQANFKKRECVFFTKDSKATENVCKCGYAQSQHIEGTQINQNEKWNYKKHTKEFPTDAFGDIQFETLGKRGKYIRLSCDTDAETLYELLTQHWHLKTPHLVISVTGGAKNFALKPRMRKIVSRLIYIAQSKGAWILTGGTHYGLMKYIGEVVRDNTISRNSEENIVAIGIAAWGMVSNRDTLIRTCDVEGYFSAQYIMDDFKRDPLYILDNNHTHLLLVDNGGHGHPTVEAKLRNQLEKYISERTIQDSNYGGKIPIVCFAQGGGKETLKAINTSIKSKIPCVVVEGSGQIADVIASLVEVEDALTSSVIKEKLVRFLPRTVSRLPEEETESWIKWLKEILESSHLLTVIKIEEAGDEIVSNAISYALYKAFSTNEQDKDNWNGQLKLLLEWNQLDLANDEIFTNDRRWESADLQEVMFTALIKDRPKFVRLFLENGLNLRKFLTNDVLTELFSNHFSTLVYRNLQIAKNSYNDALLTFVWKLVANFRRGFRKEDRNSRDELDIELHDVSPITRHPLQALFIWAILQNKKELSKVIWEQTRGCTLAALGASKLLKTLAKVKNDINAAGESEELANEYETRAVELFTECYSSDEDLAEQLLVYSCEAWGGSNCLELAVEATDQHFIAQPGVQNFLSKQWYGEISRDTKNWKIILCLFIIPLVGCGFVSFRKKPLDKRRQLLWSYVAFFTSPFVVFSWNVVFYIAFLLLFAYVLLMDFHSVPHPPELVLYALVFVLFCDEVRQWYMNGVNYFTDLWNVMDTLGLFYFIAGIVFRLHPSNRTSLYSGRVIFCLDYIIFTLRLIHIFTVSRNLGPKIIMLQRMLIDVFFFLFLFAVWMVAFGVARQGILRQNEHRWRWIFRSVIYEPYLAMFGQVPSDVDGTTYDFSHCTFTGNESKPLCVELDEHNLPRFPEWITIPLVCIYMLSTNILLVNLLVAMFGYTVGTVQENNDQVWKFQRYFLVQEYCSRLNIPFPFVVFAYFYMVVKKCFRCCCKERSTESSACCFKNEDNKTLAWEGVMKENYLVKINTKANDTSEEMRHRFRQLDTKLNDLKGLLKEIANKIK
- METHOD SUMMARY: In vitro pig TRPM8 fluorescence calcium flux assay (recombinant CHO cells, Fluo4-AM, FDSS6000)
- Type: cell-based
- RECORDED CONDITIONS: recombinant CHO cells expressing pig TRPM8; menthol-related EC50, normalized to 100 μM menthol
Answer each item with its documented EC50.
Numbers only, in nM.

compound=Cc1cccnc1CCNC(=O)[C@]1(O)C[C@H](C)CC[C@H]1C(C)C assay_system="pig TRPM8 (Sus scrofa)" recorded_endpoint=EC50 reported_value=152

Please supply EC50 for each of the following items, keeping them in order.
1. CC(C)[C@@H]1CC[C@@H](C)C[C@@]1(O)C(=O)NCC(=O)c1cccc(O)c1O
2. CC(C)[C@@H]1CC[C@@H](C)C[C@@]1(O)C(=O)NCCc1cccc2c1OCC2
3. CC(C)[C@@H]1CC[C@@H](C)C[C@@]1(O)C(=O)NC[C@H](O)c1cccc(O)c1

Ans:
[0.6, 4.9, 74.5]

###

- ASSAY SYSTEM: human TRPM8 (Homo sapiens)
- Construct: expressed in transfected cells; host or cells: CHO (p658 mammalian expression vector)
- Sequence (Q7Z2W7 whole entry): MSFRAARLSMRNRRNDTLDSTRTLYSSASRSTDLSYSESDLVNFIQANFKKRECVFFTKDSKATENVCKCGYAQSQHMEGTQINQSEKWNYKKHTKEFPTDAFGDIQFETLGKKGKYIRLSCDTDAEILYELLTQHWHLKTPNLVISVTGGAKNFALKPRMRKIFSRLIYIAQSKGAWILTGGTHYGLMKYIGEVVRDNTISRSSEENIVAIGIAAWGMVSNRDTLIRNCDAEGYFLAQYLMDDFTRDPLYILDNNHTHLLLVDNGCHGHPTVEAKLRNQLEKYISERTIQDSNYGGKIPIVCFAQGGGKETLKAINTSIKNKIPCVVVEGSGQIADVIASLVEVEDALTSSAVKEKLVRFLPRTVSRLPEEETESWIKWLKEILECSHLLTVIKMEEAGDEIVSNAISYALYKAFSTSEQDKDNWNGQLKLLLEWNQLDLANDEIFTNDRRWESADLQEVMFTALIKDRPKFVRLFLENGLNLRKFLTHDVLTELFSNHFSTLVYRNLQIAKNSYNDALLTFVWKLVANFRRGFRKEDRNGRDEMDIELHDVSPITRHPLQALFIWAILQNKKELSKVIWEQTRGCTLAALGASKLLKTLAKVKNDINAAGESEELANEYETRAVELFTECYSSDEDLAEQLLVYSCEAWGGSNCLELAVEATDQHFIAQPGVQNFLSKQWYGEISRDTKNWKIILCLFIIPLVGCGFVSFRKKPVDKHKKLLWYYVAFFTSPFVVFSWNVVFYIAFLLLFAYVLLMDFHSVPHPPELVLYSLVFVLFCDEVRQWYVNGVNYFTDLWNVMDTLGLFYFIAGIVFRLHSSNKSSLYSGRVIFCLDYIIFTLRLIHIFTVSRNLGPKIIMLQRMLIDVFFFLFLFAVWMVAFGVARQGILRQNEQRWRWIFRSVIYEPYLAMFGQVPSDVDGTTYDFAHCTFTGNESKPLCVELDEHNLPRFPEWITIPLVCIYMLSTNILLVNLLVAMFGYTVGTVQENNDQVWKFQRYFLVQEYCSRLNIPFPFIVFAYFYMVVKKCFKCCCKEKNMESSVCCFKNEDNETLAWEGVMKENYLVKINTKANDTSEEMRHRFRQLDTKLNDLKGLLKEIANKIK
- METHOD SUMMARY: In vitro human TRPM8 fluorescence calcium flux assay (recombinant CHO cells, Fluo4-AM, FDSS6000)
- Type: cell-based
- RECORDED CONDITIONS: recombinant CHO cells expressing human TRPM8; menthol-related EC50, normalized to 100 μM menthol
RECORDED ENDPOINT: pEC50
One number for each entry, as −log10 of the molar value.

molecule="CC(C)[C@@H]1CC[C@@H](C)C[C@@]1(O)C(=O)NC[C@H](O)c1cccc(CO)c1 [Example 43]" recorded_endpoint=pEC50 reported_value=6.72
molecule="COC(=O)[C@@H](N)Cc1ccccc1CCNC(=O)[C@]1(O)C[C@H](C)CC[C@H]1C(C)C [Example 19]" recorded_endpoint=pEC50 reported_value=8.15
molecule="COC(=O)[C@@H](N)COc1cccc(CCNC(=O)[C@]2(O)C[C@H](C)CC[C@H]2C(C)C)c1 [Example 27]" recorded_endpoint=pEC50 reported_value=8.51

Please supply pEC50 for each of the following items, keeping them in order.
1. Cc1cccc(CCNC(=O)[C@]2(O)C[C@H](C)CC[C@H]2C(C)C)c1 [Example 58]
2. CC(C)[C@@H]1CC[C@@H](C)C[C@@]1(O)C(=O)NCC(NC(=O)CN)c1ccccc1 (single isomer, unassigned) [Example 184]
3. CC(C)[C@@H]1CC[C@@H](C)C[C@@]1(O)C(=O)NCC(CO)c1ccccc1 (single isomer, unassigned) [Example 89]
4. CC(C)[C@@H]1CC[C@@H](C)C[C@@]1(O)C(=O)NCCc1cccc(C(=O)OC[C@H](C)O)c1 [Example 105]

Ans:
1. 8.28
2. 7.84
3. 7.04
4. 7.51

Please supply pEC50 for each of the following items, keeping them in order.
1. CC(C)[C@@H]1CC[C@@H](C)C[C@@]1(O)C(=O)NCC1OCCc2ccccc21 (single isomer, unassigned) [Example 98]
2. CC(C)[C@@H]1CC[C@@H](C)C[C@@]1(O)C(=O)NCCc1c[nH]c2ccc(O)cc12 [Example 169]
3. CC(C)[C@@H]1CC[C@@H](C)C[C@@]1(O)C(=O)NCC1(O)CCCc2ccccc21 (mixture of isomers) [Example 177]

Ans:
[7.28, 7.68, 8.44]

Please supply pEC50 for each of the following items, keeping them in order.
1. COC(=O)[C@@H](N)Cc1cccc(CCNC(=O)[C@]2(O)C[C@H](C)CC[C@H]2C(C)C)c1 [Example 20]
2. Cc1cccc(C(O)CNC(=O)[C@]2(O)C[C@H](C)CC[C@H]2C(C)C)c1 (some centres unmarked) [Example 12]
3. COc1ccc(OC)c(CCNC(=O)[C@]2(O)C[C@H](C)CC[C@H]2C(C)C)c1 [Example 128]
4. COC(=O)c1cccc(C(O)CNC(=O)[C@]2(O)C[C@H](C)CC[C@H]2C(C)C)c1 (some centres unmarked) [Example 34]

Ans:
8.49
8.52
6.52
7.01

Please supply pEC50 for each of the following items, keeping them in order.
1. CC(C)[C@@H]1CC[C@@H](C)C[C@@]1(O)C(=O)NCc1cccc(O)c1 [Example 165]
2. CC(C)[C@@H]1CC[C@@H](C)C[C@@]1(O)C(=O)NCCc1ccccc1OCC(O)CO (some centres unmarked) [Example 9]
3. COc1ccccc1C(F)(F)CNC(=O)[C@]1(O)C[C@H](C)CC[C@H]1C(C)C [Example 186]

Ans:
[6.48, 8.06, 7.36]
